Attribute: viability, T/C
# Tested on: 855422-203-R-J1-PDC spheroids with HUVEC/MSC, viability
# Method Summary: Anticancer human tumor 855422-203-R-J1-PDC patient-derived bladder carcinoma cell line growth inhibition [PI3K]
# Condition Details: second compound 10 µM; first compound 0.1 µM; stronger effect = lower value
# Description: Combinatorial screen of targeted agents with the PI3K inhibitors inavolisib, alpelisib, duvelisib, and copanlisib in multi-cell type tumor spheroids A high-throughput screen of multi-cell type tumor spheroids was designed to identify active combinations of targeted small molecules and PI3K pathway inhibitors. […] Compounds. […] If the clinical Cmax for an agent had not been determined, the highest concentration tested was 10 microM. […]

# count of solved cases: 2
>  <Compound>
C#Cc1c(F)ccc2cc(O)cc(-c3ncc4c(N5CC6CCC(C5)N6)nc(OCC56CCCN5CC(F)C6)nc4c3F)c12 (stereo not drawn) + Cc1nc(NC(=O)N2CCCC2C(N)=O)sc1-c1ccnc(C(C)(C)C(F)(F)F)c1

>  <Result>
21.5%

$$$$
>  <Compound>
CCN1CCN(Cc2ccc(Nc3ncc(F)c(-c4cc(F)c5nc(C)n(C(C)C)c5c4)n3)nc2)CC1 + Cc1nc(NC(=O)N2CCCC2C(N)=O)sc1-c1ccnc(C(C)(C)C(F)(F)F)c1

>  <Result>
12.1%

$$$$

# next compound below
Q: Look up viability, T/C: C[C@@H](NC(=O)c1ncnc(N)c1Cl)c1ncc(C(=O)Nc2cc(C(F)(F)F)c(Cl)cn2)s1 + CC(Nc1ncnc2nc[nH]c12)c1cc2cccc(Cl)c2c(=O)n1-c1ccccc1
A: 75.7%

---

# Test system: 855422-203-R-J1-PDC spheroids with HUVEC/MSC, viability
# Method Summary: Anticancer human tumor 855422-203-R-J1-PDC cell line growth inhibition [PI3K];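 note: agents incubated with spheroids for one week before read-out; 100% = DMSO vehicle-treated control wells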
# Condition Details: second compound 0.0316 µM; first compound 0.1 µM; stronger effect = lower value
Experimental Readout: viability, T/C (%)
Report only the number, with the unit % understood.

>  <Molecule>
C[C@@H](NC(=O)c1ncnc(N)c1Cl)c1ncc(C(=O)Nc2cc(C(F)(F)F)c(Cl)cn2)s1 + Cc1nc(NC(=O)N2CCCC2C(N)=O)sc1-c1ccnc(C(C)(C)C(F)(F)F)c1

>  <Numeric Readout>
85.9

$$$$
>  <Molecule>
CCCS(=O)(=O)Nc1ccc(F)c(C(=O)c2c[nH]c3ncc(-c4ccc(Cl)cc4)cc23)c1F + CC(Nc1ncnc2nc[nH]c12)c1cc2cccc(Cl)c2c(=O)n1-c1ccccc1

>  <Numeric Readout>
88.6

$$$$

# next molecule below
Q: Write down the reported viability, T/C of Cn1nccc1Nc1nccc(-c2ccn(C(CO)c3ccc(Cl)c(F)c3)c(=O)c2)n1 (stereo not drawn) + CC(Nc1ncnc2nc[nH]c12)c1cc2cccc(Cl)c2c(=O)n1-c1ccccc1 , test system: 855422-203-R-J1-PDC spheroids with HUVEC/MSC, viability.
A: 94.6

---

# Tested on: 855422-203-R-J1-PDC spheroids with HUVEC/MSC, viability
# Method Summary: Anticancer human tumor 855422-203-R-J1-PDC cell line growth inhibition [PI3K]; active = viability on the fitted dose curve at most 10% of control; inactive = the rest;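 note: agents incubated with spheroids for one week before read-out; 100% = DMSO vehicle-treated control wells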
# Condition Details: compound 1 µM
Pick from active, inactive when you respond.

These recorded examples may help you get a feel for the data.
>  <Compound>
Cn1nccc1Nc1nccc(-c2ccn(C(CO)c3ccc(Cl)c(F)c3)c(=O)c2)n1 (centres undefined)

>  <Assayed Target>
855422-203-R-J1-PDC spheroids with HUVEC/MSC, viability

>  <Label Value>
inactive

$$$$
>  <Compound>
CCCS(=O)(=O)Nc1ccc(F)c(C(=O)c2c[nH]c3ncc(-c4ccc(Cl)cc4)cc23)c1F

>  <Assayed Target>
855422-203-R-J1-PDC spheroids with HUVEC/MSC, viability

>  <Label Value>
inactive

$$$$
>  <Compound>
COc1c(OCCCN2CCOCC2)ccc2c3n(c(=NC(=O)c4cnc(N)nc4)nc12)CCN3

>  <Assayed Target>
855422-203-R-J1-PDC spheroids with HUVEC/MSC, viability

>  <Label Value>
active

$$$$
>  <Compound>
CC(Nc1ccc2c(c1)OCCn1cc(N3C(=O)OCC3C(F)F)nc1-2)C(N)=O (centres undefined)

>  <Assayed Target>
855422-203-R-J1-PDC spheroids with HUVEC/MSC, viability

>  <Label Value>
inactive

$$$$
>  <Compound>
Cn1ncc(Cl)c1-c1cc(C(=O)NC(CN)Cc2cccc(F)c2)sc1Cl (centres undefined)

>  <Assayed Target>
855422-203-R-J1-PDC spheroids with HUVEC/MSC, viability

>  <Label Value>
inactive

$$$$
>  <Compound>
C=CC(=O)N1CCN(c2nc(=O)n(-c3c(C)ccnc3C(C)C)c3nc(-c4c(O)cccc4F)c(F)cc23)C(C)C1 (centres undefined)

>  <Assayed Target>
855422-203-R-J1-PDC spheroids with HUVEC/MSC, viability

>  <Label Value>
inactive

$$$$
>  <Compound>
CC(Cn1ccc(-c2ccc(C#N)c(Cl)c2)n1)NC(=O)c1cc(C(C)O)[nH]n1 (centres undefined)

>  <Assayed Target>
855422-203-R-J1-PDC spheroids with HUVEC/MSC, viability

>  <Label Value>
inactive

$$$$
>  <Compound>
C#Cc1c(F)ccc2cc(O)cc(-c3ncc4c(N5CC6CCC(C5)N6)nc(OCC56CCCN5CC(F)C6)nc4c3F)c12 (centres undefined)

>  <Assayed Target>
855422-203-R-J1-PDC spheroids with HUVEC/MSC, viability

>  <Label Value>
inactive

$$$$

Q: Identify the outcome logged in this assay for the compound shown: CCN1CCN(Cc2ccc(Nc3ncc(F)c(-c4cc(F)c5nc(C)n(C(C)C)c5c4)n3)nc2)CC1
A: inactive

Q: Identify the outcome logged in this assay for the compound shown: CC1(C)CCC(Nc2ncc(C(F)(F)F)c(-c3c[nH]c4c(P(C)(C)=O)c(C#N)ccc34)n2)CN1 (centres undefined)
A: inactive

Q: Identify the outcome logged in this assay for the compound shown: CC(Nc1ncnc2nc[nH]c12)c1cc2cccc(Cl)c2c(=O)n1-c1ccccc1 (centres undefined)
A: inactive

Q: Identify the outcome logged in this assay for the compound shown: CNC(=O)c1ccc(N2C(=S)N(c3ccc(C#N)c(C(F)(F)F)c3)C(=O)C2(C)C)cc1F
A: inactive

Q: Identify the outcome logged in this assay for the compound shown: CC(C)NCC(C(=O)N1CCN(c2ncnc3c2C(C)CC3O)CC1)c1ccc(Cl)cc1 (centres undefined)
A: inactive

Q: Identify the outcome logged in this assay for the compound shown: Cc1nc(NC(=O)N2CCCC2C(N)=O)sc1-c1ccnc(C(C)(C)C(F)(F)F)c1 (centres undefined)
A: inactive

---

# Test system: 855422-203-R-J1-PDC spheroids with HUVEC/MSC, viability
# Method Summary: Anticancer human tumor 855422-203-R-J1-PDC cell line growth inhibition [PI3K];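 note: agents incubated with spheroids for one week before read-out; 100% = DMSO vehicle-treated control wells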
# Condition Details: second compound 1 µM; first compound 0.0316 µM; stronger effect = lower value
Rule for this label: Fulfilled means viability, T/C is less than 60%; Not fulfilled means viability, T/C is at least 60%.

These recorded examples may help you get a feel for the data.
>  <Molecule>
C=CC(=O)N1CCN(c2nc(=O)n(-c3c(C)ccnc3C(C)C)c3nc(-c4c(O)cccc4F)c(F)cc23)C(C)C1 (configuration not stated) + COc1c(OCCCN2CCOCC2)ccc2c3n(c(=NC(=O)c4cnc(N)nc4)nc12)CCN3

>  <Label Value>
Fulfilled

$$$$
>  <Molecule>
CC(Cn1ccc(-c2ccc(C#N)c(Cl)c2)n1)NC(=O)c1cc(C(C)O)[nH]n1 (configuration not stated) + Cc1nc(NC(=O)N2CCCC2C(N)=O)sc1-c1ccnc(C(C)(C)C(F)(F)F)c1

>  <Label Value>
Not fulfilled

$$$$

Next:
Q: Say whether its viability, T/C is strictly beneath 60%. Entry: Cn1nccc1Nc1nccc(-c2ccn(C(CO)c3ccc(Cl)c(F)c3)c(=O)c2)n1 (configuration not stated) + Cc1nc(NC(=O)N2CCCC2C(N)=O)sc1-c1ccnc(C(C)(C)C(F)(F)F)c1
A: Not fulfilled

---

Attribute: viability, T/C
# Tested on: 855422-203-R-J1-PDC spheroids with HUVEC/MSC, viability
# Method Summary: Anticancer human tumor 855422-203-R-J1-PDC cell line growth inhibition [PI3K];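 note: agents incubated with spheroids for one week before read-out; 100% = DMSO vehicle-treated control wells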
# Condition Details: second compound 1 µM; first compound 0.0316 µM; stronger effect = lower value
Report only the number, with the unit % understood.

# count of solved cases: 2
>  <Molecule>
CC1(C)CCC(Nc2ncc(C(F)(F)F)c(-c3c[nH]c4c(P(C)(C)=O)c(C#N)ccc34)n2)CN1 (stereo not drawn) + Cc1nc(NC(=O)N2CCCC2C(N)=O)sc1-c1ccnc(C(C)(C)C(F)(F)F)c1

>  <Readout Unit>
%

>  <viability, T/C>
20.2

$$$$
>  <Molecule>
CCN1CCN(Cc2ccc(Nc3ncc(F)c(-c4cc(F)c5nc(C)n(C(C)C)c5c4)n3)nc2)CC1 + CC(Nc1ccc2c(c1)OCCn1cc(N3C(=O)OCC3C(F)F)nc1-2)C(N)=O

>  <Readout Unit>
%

>  <viability, T/C>
21.9

$$$$

# next molecule below
Q: Look up viability, T/C: CC(Cn1ccc(-c2ccc(C#N)c(Cl)c2)n1)NC(=O)c1cc(C(C)O)[nH]n1 (stereo not drawn) + CC(Nc1ccc2c(c1)OCCn1cc(N3C(=O)OCC3C(F)F)nc1-2)C(N)=O
A: 35.6
